Test: in vitro
Details: mouse, liver microsomes
Description: Metabolic stability in mouse liver microsomes assessed as half life at 0.02 uM measured upto 60 mins by LC-MS/MS analysis
measured_property: half-life at 1 h, 0.02 µM
A complete answer gives the number and then names the unit.

Can you share its half-life at 1 h, 0.02 µM? I mean this compound: COC(=O)c1ccc2[nH]cc(C(=O)C(=O)NC3CCN(c4ccc(C)cc4Cl)C3=O)c2c1 (stereo unspecified)
37.9 min

---

Experiment: Clearance in BALB/c mouse at 1.2 mg/kg, iv measured upto 24 hrs by LC-MS/MS analysis
Conditions: in vivo
measured_property: clearance at 24 h
A complete answer gives the number and then names the unit.

Can you share its clearance at 24 h? I mean this compound: COC(=O)c1ccc2[nH]cc(C(=O)C(=O)NC3CCN(c4ccc(C)cc4Cl)C3=O)c2c1 (stereo unspecified)
10 mL/min/kg

---

Assay: Half life in BALB/c mouse at 1.2 mg/kg, iv measured upto 24 hrs by LC-MS/MS analysis
Conditions: in vivo
measured_property: half-life at 24 h (min)
Kindly provide the numeric value in min only, without the unit symbol.

Can you share its half-life at 24 h? I mean this molecule: COC(=O)c1ccc2[nH]cc(C(=O)C(=O)NC3CCN(c4ccc(C)cc4Cl)C3=O)c2c1 (stereo unspecified)
46.2

---

Assay: in vitro
Details: rat, liver microsomes
Description: Metabolic stability in rat liver microsomes assessed as half life at 0.02 uM measured upto 60 mins by LC-MS/MS analysis
measured_property: half-life at 1 h, 0.02 µM (min)
Kindly provide the numeric value in min only, without the unit symbol.

Can you share its half-life at 1 h, 0.02 µM? I mean this molecule: COC(=O)c1ccc2[nH]cc(C(=O)C(=O)NC3CCN(c4ccc(C)cc4Cl)C3=O)c2c1 (stereo unspecified)
25.9

---

Test system: HCCLM3
Test: cells
Conditions: Homo sapiens, HCCLM3, 72 h
Description: Antitumor activity against human HCCLM3 cells assessed as inhibition of cell proliferation measured after 72 hrs by CCK-8 assay
measured_property: pIC50
Remember the convention: pIC50 equals -log10 of concentration in molar.

Can you share its pIC50? I mean this compound: COC(=O)c1ccc2[nH]cc(C(=O)C(=O)NC3CCN(c4ccc(C)cc4Cl)C3=O)c2c1 (stereo unspecified)
4.74
